List of TGI values.
# System: M14 melanoma
# protocol_text: NCI tumour cell line growth inhibition, 48 h
endpoint_label: TGI

• O=[N+]([O-])c1c(O)c2nonc2c2nn(-c3ccccc3)nc12 = > 100 µM
• N=c1ncn(C/C=C/c2ccccc2)c2nc[nH]c12 = > 100 µM
• O=C(NC1CCC[C@H]1OC(=O)c1ccccc1)c1ccccc1 (stereo not given in full) = > 100 µM
• C/C(=N\N=C(N)N)C(CN1CCOCC1)C(c1ccccc1)c1c(O)c2ccccc2oc1=O (stereo not given) = > 100 µM
• COC(=O)CC[C@@H](C)[C@H]1CC[C@H]2[C@@H]3CC[C@@H]4C[C@H](O)CC[C@]4(C)[C@H]3CC[C@]12C = 35.8 µM
• CC(NNC(=S)N1CCN(c2ccccn2)CC1)c1nccc2ccccc12 (stereo not given) = 2.46 µM
• C=CC1=C(C)C(/C=c2\[nH]/c(=C/c3[nH]c(CC4NC(=O)C(C)/C4=C\C)c(C)c3CCC(=O)O)c(CC(=O)O)c2C)=NC1=O (stereo not given) = > 100 µM
• O=C(O)c1cc(NCc2cc(O)ccc2O)ccc1O = > 100 µM
• CC(C)(C)NCC(O)c1ccccc1Cl (stereo not given) = > 100 µM
• N#CC1=C(O)NC(O)=C(C#N)C1c1c(Cl)cccc1Cl = > 100 µM
• C=C(C)C1(Sc2ccc(OC)cc2)CC1 = > 100 µM
• CCN(CC)/N=C\c1c2ccccc2cc2ccccc12 = 51.6 µM
• CC(=O)NC1C(OCc2ccccc2)OC(CO)C(O)C1OC(C)C(=O)NC(C(=O)NC(CCC(=O)NCCCNc1ccc([N+](=O)[O-])c2[nH]c3ccccc3c(=O)c12)C(N)=O)C(C)C (stereo not given) = > 100 µM
• CCOC(=O)Cc1[nH]c(C(=O)c2ccccc2)cc1C(=O)c1ccccc1 = > 100 µM
• N=C1C=CC(=C(c2ccc(N)cc2)c2ccc(N)cc2)C=C1 = 15.8 µM
• O=C(Nc1ccc(Br)cc1)C(=O)C(C(=O)c1ccc(Cl)c(Cl)c1)C1OC(=O)c2ccccc21 (stereo not given) = 31.9 µM
• COc1cc2ncnc(Oc3ccc(NC(=O)Nc4ccc(CN5CCOCC5)c(C(F)(F)F)c4)c4ccccc34)c2cc1OC = 4.14 µM
• CSc1nnnc2ccccc12 = > 100 µM
• C=CC(=O)N1C/C(=C\c2ccc(OC)cc2)C(=O)/C(=C/c2ccc(OC)cc2)C1 = 4.78 µM
• CCCCCCCCN(CCCCCCCC)CC(O)c1cc(-c2ccccc2)nc2ccc(OC)cc12 (stereo not given) = 68.5 µM

----------
We begin with a simple list: items and their reported TGI.
# Tested on: RXF 393 renal
# protocol_text: NCI tumour cell line growth inhibition, 48 h
endpoint_label: TGI

* CC(C)(C)NCC(O)c1ccccc1Cl (stereo unspecified) | > 100 µM
* C[C@]12CCC(=O)C=C1C[C@@H](O)[C@@H]1[C@@H]2CC[C@@]2(C)[C@H]1CC[C@]2(C)O | > 100 µM
* N#C/C(=C\c1ccc[nH]1)c1cc(-c2ccc(Cl)cc2)nn1-c1ccccc1 | 24.2 µM
* O=c1c(O)c(-c2ccccc2)oc2c(CP(=O)(O)O)cccc12 | > 100 µM
* N=c1ncn(C/C=C/c2ccccc2)c2nc[nH]c12 | > 100 µM
* C=C(C)C1(Sc2ccc(OC)cc2)CC1 | 36.3 µM
